These entries and their values trace back to ChEMBL document CHEMBL4689842.

# System: U2OS
# PROTOCOL_TEXT: Multiplex assay against U2OS
# Format: toxicity, cell-based
# APPLIED_CONDITIONS: human, 24 h, 1 µM, compound concentration 1 uM, replicate 1
Reported Population Hoechst High Intensity Objects (%) by item:
Return type: number; implicit unit %.

Solved cases (2 shown):
{"columns": ["MOLECULE", "RECORDED_NUMBER"],
 "data": [
  ["CCc1nn(CCCN2CCN(c3cccc(Cl)c3)CC2)c(=O)n1CCOc1ccccc1.Cl [NEFAZODONE HYDROCHLORIDE]", 6],
  ["COc1cc(Nc2nccc(-c3cnn4nc(OC)ccc34)n2)cc(C(F)(F)F)c1", 6]
]}

Now take the following molecule into account.
Dear colleague, I am looking for the recorded Population Hoechst High Intensity Objects (%) of the following molecule: CC(C)OC(=O)N1CCC(Oc2ncnc3c2cnn3-c2ccc(S(C)(=O)=O)cc2F)CC1
6

###

# System: U2OS
# PROTOCOL_TEXT: Multiplex assay against U2OS
# Assay type: toxicity, cell-based
# APPLIED_CONDITIONS: human, 24 h, 1 µM, compound concentration 1 uM, replicate 1
Consider the cut-off 200. If the recorded Total Cell Count is strictly smaller, the label is Satisfied; if not, the label is Not satisfied.

Solved cases (3 shown):
{"columns": ["COMPOUND", "TEST_SYSTEM", "ASSIGNED_CATEGORY"],
 "data": [
  ["Cc1ccc(C)c(Oc2ccncc2C(=O)N2CCN(C3CC3)c3ccccc32)c1", "U2OS", "Satisfied"],
  ["CCc1ccc(OCc2ccccc2C(=O)Nc2ccc3nc(C)cc(N)c3c2)cc1.Cl", "U2OS", "Not satisfied"],
  ["CC(C)Oc1ccccc1C(=O)Nc1ccccc1C(=O)Nc1cccc(S(=O)(=O)C(F)(F)F)c1", "U2OS", "Satisfied"]
]}

Next compound, please.
Consider the compound CCCSc1nc(N[C@@H]2C[C@H]2c2ccc(F)c(F)c2)c2nnn([C@@H]3C[C@H](OCCO)[C@@H](O)[C@H]3O)c2n1 . Is its Total Cell Count strictly less than 200?
Satisfied

###

# Tested on: HEK-293T
# PROTOCOL_TEXT: Multiplex assay against HEK293T
# Assay type: toxicity, cell-based
# APPLIED_CONDITIONS: human, 48 h, 1 µM, compound concentration 1 uM, replicate 2
VALUE_KIND: Total Cell Count

Solved cases (2 shown):
{"columns": ["COMPOUND", "Total Cell Count"],
 "data": [
  ["Cl.O=C(O)c1cc(-c2ccc(C3CCNCC3)cc2)c2ccc(-c3ccc(C(F)(F)F)cc3)cc2c1", 390],
  ["CC(C)Oc1ccccc1C(=O)Nc1ccccc1C(=O)Nc1cccc(S(=O)(=O)C(F)(F)F)c1", 393]
]}

Now take the following compound into account.
// lookup Total Cell Count | system=HEK-293T | key= Cc1cccc(CN2CCN(C(c3ccccc3)c3ccc(Cl)cc3)CC2)c1.Cl.Cl (stereo not drawn)
397

###

# System: Fibroblast
# PROTOCOL_TEXT: Multiplex assay against human fibroblast
# Type: toxicity, cell-based
# APPLIED_CONDITIONS: 48 h, 10 µM, compound concentration 10 uM, replicate 1
VALUE_KIND: Population Hoechst High Intensity Objects (%)
Quick note: number first, unit second.

Solved cases (5 shown):
{"columns": ["COMPOUND", "TEST_SYSTEM", "RESULT"],
 "data": [
  ["CCOC(=O)Nc1cc(-c2ccc(C)c(NS(C)(=O)=O)c2)nn2c(C)nnc12", "Fibroblast", "16%"],
  ["C#Cc1cccc(Nc2ncnc3cc(OCCOC)c(OCCOC)cc23)c1 [ERLOTINIB]", "Fibroblast", "16%"],
  ["Cc1ccc(C)c(Oc2ccncc2C(=O)N2CCN(C3CC3)c3ccccc32)c1", "Fibroblast", "9%"],
  ["CNC(=O)Nc1ccc(-c2nc(N3CC4CCC(C3)O4)c3cnn(C4CCC5(CC4)OCCO5)c3n2)cc1", "Fibroblast", "19%"],
  ["C[C@]12CC[C@@H]3c4ccc(O)cc4CC[C@H]3[C@@H]1CC[C@@H]2O [ESTRADIOL]", "Fibroblast", "13%"]
]}

Now take the following compound into account.
Dear colleague, I am looking for the recorded Population Hoechst High Intensity Objects (%) of the following compound: CC(C)c1noc(N2CCC(COc3ccc(-c4ccc(S(C)(=O)=O)cc4)nc3)CC2)n1 [GSK-1292263]
14%

###

# Test system: Fibroblast
# PROTOCOL_TEXT: Incucyte cell viability with human fibroblast; further: filed as whole numbers so only -1 and 0 and 1 occur
# Assay type: toxicity, cell-based
# APPLIED_CONDITIONS: 24 h, 10 µM, compound concentration 10 uM, replicate number 1, timepoint 24 hours
Reported Growth Rate by item:

Solved cases (3 shown):
{"columns": ["CHEMICAL_SMILES", "VALUE_KIND", "RESULT"],
 "data": [
  ["CN(C)C(=O)Cn1cc(-c2nc([C@@](C)(c3ccc(-c4cnc(N)nc4)cc3)C3CC3)no2)cn1", "Growth Rate", 0],
  ["Cc1c[nH]c2nccc(Oc3c(F)cc(Nc4cc(Cl)nc(N)n4)cc3F)c12", "Growth Rate", 0],
  ["CN1C[C@H](Nc2cnn(C)c(=O)c2Br)C[C@H](c2ccccc2)C1", "Growth Rate", 1]
]}

Dear colleague, I am looking for the recorded Growth Rate of the following compound: C[C@]1(C(=O)N(CCCC(=O)O)Cc2cccc(Cl)c2)CCN1C(=O)c1csc2ccccc12
1

Then COc1cc(Nc2nccc(-c3cnn4nc(OC)ccc34)n2)cc(C(F)(F)F)c1 ?
0

###

# Tested on: U2OS
# PROTOCOL_TEXT: Multiplex assay against U2OS
# Format: toxicity, cell-based
# APPLIED_CONDITIONS: human, 12 h, 10 µM, compound concentration 10 uM, replicate 1
Reported Population Apoptotic (%) by item:
Return type: number; implicit unit %.

Solved cases (3 shown):
{"columns": ["COMPOUND", "ENDPOINT_UNIT", "RECORDED_NUMBER"],
 "data": [
  ["COc1ccccc1CN[C@H]1C2CCN(CC2)[C@H]1C(c1ccccc1)c1ccccc1", "%", 51],
  ["Cl.O=C(O)c1cc(-c2ccc(C3CCNCC3)cc2)c2ccc(-c3ccc(C(F)(F)F)cc3)cc2c1", "%", 41],
  ["O=C(c1cc2c(cc1F)OC(c1ccc(F)cc1)(c1ccc(Cl)cc1Cl)O2)N1CCOCC1 (centres undefined)", "%", 50]
]}

Dear colleague, I am looking for the recorded Population Apoptotic (%) of the following compound: CC1=C(C(=O)Nc2cc3cn[nH]c3cc2F)C(c2ccc(C(F)(F)F)cc2)CC(=O)N1 (centres undefined)
40

###

Reported Total Cell Count by item:
# Tested on: U2OS
# PROTOCOL_TEXT: Multiplex assay against U2OS
# Type: toxicity, cell-based
# APPLIED_CONDITIONS: human, 12 h, 1 µM, compound concentration 1 uM, replicate 2
No unit in the answer, please; the number alone is enough.

Solved cases (2 shown):
{"columns": ["COMPOUND", "Total Cell Count"],
 "data": [
  ["O=c1cc(N2CCOCC2)oc2c(-c3cccc4c3sc3ccccc34)cccc12", 79],
  ["O=C(c1cc2c(cc1F)OC(c1ccc(F)cc1)(c1ccc(Cl)cc1Cl)O2)N1CCOCC1 (stereo not drawn)", 78]
]}

Now take the following compound into account.
Dear colleague, I am looking for the recorded Total Cell Count of the following compound: C[C@]12CC[C@@H]3c4ccc(O)cc4CC[C@H]3[C@@H]1CC[C@@H]2O
80

###

Reported Population Pyknosed Nuclei (%) by item:
# System: Fibroblast
# PROTOCOL_TEXT: Multiplex assay against human fibroblast
# Type: toxicity, cell-based
# APPLIED_CONDITIONS: 12 h, 10 µM, compound concentration 10 uM, replicate 2

Solved cases (10 shown):
{"columns": ["COMPOUND", "Population Pyknosed Nuclei (%)"],
 "data": [
  ["Cc1nc(N2CC[C@H](O)C2)ncc1-c1cc(C(F)(F)F)cc2[nH]ncc12", "9%"],
  ["CC(C)NC(=O)N1CC[C@H](NC2=Nc3cc(F)ccc3N(CC(F)F)c3ccc(Cl)cc32)C1", "11%"],
  ["Cc1ccc2c(c1)c1c(n2CCc2ccc(C)nc2)CCN(C)C1 [LATREPIRDINE]", "26%"],
  ["CC(C)OC(=O)N1CCC(Oc2ncnc3c2cnn3-c2ccc(S(C)(=O)=O)cc2F)CC1", "16%"],
  ["Cc1cccc(CN2CCN(C(c3ccccc3)c3ccc(Cl)cc3)CC2)c1.Cl.Cl (centres undefined)", "13%"],
  ["O=c1[nH]c2ccccc2n1C1CCN(Cc2ccc(-c3[nH]c4cc5ncnc5cc4nc3-c3ccccc3)cc2)CC1", "12%"],
  ["COC(=O)C1=C(C)NC(C)=C(C(=O)OCCCN2CCC(c3ccccc3)(c3ccccc3)CC2)[C@H]1c1cccc([N+](=O)[O-])c1", "29%"],
  ["C[C@]12CC[C@@H]3c4ccc(O)cc4CC[C@H]3[C@@H]1CC[C@@H]2O", "12%"],
  ["Cl.O=C(O)c1cc(-c2ccc(C3CCNCC3)cc2)c2ccc(-c3ccc(C(F)(F)F)cc3)cc2c1", "21%"],
  ["O=c1cc(N2CCOCC2)oc2c(-c3cccc4c3sc3ccccc34)cccc12", "34%"]
]}

Dear colleague, I am looking for the recorded Population Pyknosed Nuclei (%) of the following compound: CCc1nn(CCCN2CCN(c3cccc(Cl)c3)CC2)c(=O)n1CCOc1ccccc1.Cl [NEFAZODONE HYDROCHLORIDE]
20%

Then Cc1c[nH]c2nccc(Oc3c(F)cc(Nc4cc(Cl)nc(N)n4)cc3F)c12 ?
17%
